Assignment: determine reported viability, T/C for the given compounds.
# System: 233499-124-R-J3-PDC complex spheroid viability, % test/control
# assay.explanation: Anticancer human tumor 233499-124-R-J3-PDC patient-derived colon adenocarcinoma cell line growth inhibition
# setup.conditions: second compound 0.316 µM; first compound 0.316 µM; stronger effect = lower value
# Text: Multicellular complex tumor spheroid response to LSD1 Inhibitor Iadademstat in combination with a variety of drugs and investigational agents in selected tumor cell lines The current study was undertaken to assess response to LSD1 inhibitors in combination with standard-of-care drugs and investigational agents in solid tumor complex spheroid models as well as in the K-562 leukemia. […] Compounds. […] If the clinical Cmax for an agent had not been determined, the highest concentration tested was 10 microM. […]
Numbers only, in %.

- compound: "COc1cc(Nc2ncc3c(n2)-c2ccc(Cl)cc2C(c2c(F)cccc2OC)=NC3)ccc1C(=O)O + NC1CC1c1ccc(-c2cccc(O)c2)cc1"
  viability, T/C [%]: 62.8

Would you be so kind as to report viability, T/C for each listed record?
1. COc1ccc([C@@H](O)c2cc(-c3ncnc4cc(N5CCOCC5)ccc34)c(F)cc2Cl)nn1 + NC1CCC(NC2CC2c2ccccc2)CC1
2. CC1COCCN1c1cc(C2(S(C)(=N)=O)CC2)nc(-c2ccnc3[nH]ccc23)n1 (stereo unspecified) + NC1CC1c1ccc(-c2cccc(O)c2)cc1
3. CC1COCCN1c1cc(-c2ccnn2C)c2ccnc(-c3ccn[nH]3)c2n1 (stereo unspecified) + NC1CC1c1ccc(-c2cccc(O)c2)cc1
4. Nc1ncn(C2CC(O)C(CO)O2)c(=O)n1 (stereo unspecified) + NC1CC1c1ccc(-c2cccc(O)c2)cc1

(A)
1: 86.7; 2: 101; 3: 43.7; 4: 96.9

Lookup result for CC1(C)CCC(CN2CCN(c3ccc(C(=O)NS(=O)(=O)c4ccc(NCC5CCOCC5)c([N+](=O)[O-])c4)c(Oc4cnc5[nH]ccc5c4)c3)CC2)=C(c2ccc(Cl)cc2)C1 + NC1CC1c1ccc(-c2cccc(O)c2)cc1 ; measured viability, T/C: 100

----------
# Test system: 233499-124-R-J3-PDC complex spheroid viability, % test/control
# assay.explanation: Anticancer human tumor 233499-124-R-J3-PDC cell line growth inhibition;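 further: spheroids exposed to agents for one week before readout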
# setup.conditions: second compound 0.316 µM; first compound 0.000316 µM; stronger effect = lower value
parameter.measured: viability, T/C (%)
Answers are plain numbers, in %.

- compound: "Cn1ncnc1C1c2n[nH]c(=O)c3cc(F)cc(c23)NC1c1ccc(F)cc1 (stereo not drawn) + NC1CC1c1ccc(-c2cccc(O)c2)cc1"
  observed.measurement: 89.1

Give viability, T/C for each of the items listed below.
1. CC(C)CC(NC(=O)C(Cc1ccccc1)NC(=O)c1cnccn1)B(O)O (stereo not drawn) + NC1CCC(NC2CC2c2ccccc2)CC1
2. CC[C@@]1(O)C(=O)OCc2c1cc1n(c2=O)Cc2cc3c(CN(C)C)c(O)ccc3nc2-1 + NC1CC1c1ccc(-c2cccc(O)c2)cc1
3. CC(C)CC(NC(=O)C(Cc1ccccc1)NC(=O)c1cnccn1)B(O)O (stereo not drawn) + NC1CC1c1ccc(-c2cccc(O)c2)cc1

(A)
1: 110; 2: 96.6; 3: 71

----------
For each record, write down the corresponding viability, T/C.
# System: 233499-124-R-J3-PDC complex spheroid viability, % test/control
# assay.explanation: Anticancer human tumor 233499-124-R-J3-PDC cell line growth inhibition;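 further: spheroids exposed to agents for one week before readout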
# setup.conditions: second compound 10 µM; first compound 0.949 µM; stronger effect = lower value
Numbers only, in %.

- compound: "O=C(C=Cc1cccc(S(=O)(=O)Nc2ccccc2)c1)NO + NC1CC1c1ccc(-c2cccc(O)c2)cc1"
  unit.string: "%"
  viability, T/C: 5

Field: viability, T/C. Fill in for each record below.
1. Nc1ccccc1NC(=O)c1ccc(CNC(=O)OCc2cccnc2)cc1 + NC1CC1c1ccc(-c2cccc(O)c2)cc1
2. CCN(c1cc(-c2ccc(CN3CCOCC3)cc2)cc(C(=O)NCc2c(C)cc(C)[nH]c2=O)c1C)C1CCOCC1 + NC1CC1c1ccc(-c2cccc(O)c2)cc1
3. CCN(c1cc(-c2ccc(CN3CCOCC3)cc2)cc(C(=O)NCc2c(C)cc(C)[nH]c2=O)c1C)C1CCOCC1 + NC1CCC(NC2CC2c2ccccc2)CC1
4. O=C(C=Cc1cccc(S(=O)(=O)Nc2ccccc2)c1)NO + NC1CCC(NC2CC2c2ccccc2)CC1
5. NS(=O)(=O)OCC1CC(n2ccc3c(NC4CCc5ccccc54)ncnc32)CC1O (configuration not stated) + NC1CCC(NC2CC2c2ccccc2)CC1
6. COc1cc(C2c3cc4c(cc3C(OC3OC5COC(C)OC5C(O)C3O)C3COC(=O)C23)OCO4)cc(OC)c1O (configuration not stated) + NC1CC1c1ccc(-c2cccc(O)c2)cc1

(A)
8.25
65.8
83.5
32.9
5.43
46.5

----------
# Test system: 233499-124-R-J3-PDC complex spheroid viability, % test/control
# assay.explanation: Anticancer human tumor 233499-124-R-J3-PDC cell line growth inhibition; active = viability on the fitted dose curve at most 10% of control; inactive = the rest;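 further: spheroids exposed to agents for one week before readout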
# setup.conditions: second compound 0.1 µM; first compound 3 µM
A correct response names exactly one class from class 1 (active), class 0 (inactive)

(Q) Would you mind telling me which call this test gave O=C(C=Cc1cccc(S(=O)(=O)Nc2ccccc2)c1)NO + NC1CC1c1ccc(-c2cccc(O)c2)cc1 ?
(A) class 0

(Q) Test call, this compound: CCN(c1cc(-c2ccc(CN3CCOCC3)cc2)cc(C(=O)NCc2c(C)cc(C)[nH]c2=O)c1C)C1CCOCC1 + NC1CC1c1ccc(-c2cccc(O)c2)cc1
(A) class 0

(Q) Outcome logged for Nc1ccccc1NC(=O)c1ccc(CNC(=O)OCc2cccnc2)cc1 + NC1CCC(NC2CC2c2ccccc2)CC1 in this assay:
(A) class 1

(Q) Name the outcome recorded for NS(=O)(=O)OCC1CC(n2ccc3c(NC4CCc5ccccc54)ncnc32)CC1O (stereo not given) + NC1CC1c1ccc(-c2cccc(O)c2)cc1 in the assay.
(A) class 1

(Q) Please share the test call associated with COc1cc(C2c3cc4c(cc3C(OC3OC5COC(C)OC5C(O)C3O)C3COC(=O)C23)OCO4)cc(OC)c1O (stereo not given) + NC1CC1c1ccc(-c2cccc(O)c2)cc1 .
(A) class 0

(Q) Called result for NS(=O)(=O)OCC1CC(n2ccc3c(NC4CCc5ccccc54)ncnc32)CC1O (stereo not given) + NC1CCC(NC2CC2c2ccccc2)CC1
(A) class 1

(Q) Dear colleague, could you share the recorded outcome for O=C(C=Cc1cccc(S(=O)(=O)Nc2ccccc2)c1)NO + NC1CCC(NC2CC2c2ccccc2)CC1 when you have a moment?
(A) class 0

(Q) Which result was noted for this compound in the test: CCN(c1cc(-c2ccc(CN3CCOCC3)cc2)cc(C(=O)NCc2c(C)cc(C)[nH]c2=O)c1C)C1CCOCC1 + NC1CCC(NC2CC2c2ccccc2)CC1
(A) class 0

(Q) How was COc1cc(C2c3cc4c(cc3C(OC3OC5COC(C)OC5C(O)C3O)C3COC(=O)C23)OCO4)cc(OC)c1O (stereo not given) + NC1CCC(NC2CC2c2ccccc2)CC1 classified in this test?
(A) class 0

(Q) Entry Nc1ccccc1NC(=O)c1ccc(CNC(=O)OCc2cccnc2)cc1 + NC1CC1c1ccc(-c2cccc(O)c2)cc1 : call = ?
(A) class 1

----------
# Tested on: 233499-124-R-J3-PDC complex spheroid viability, % test/control
# assay.explanation: Anticancer human tumor 233499-124-R-J3-PDC cell line growth inhibition; active means viability on the fitted dose curve at most 10% of control; inactive means the rest;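 further: spheroids exposed to agents for one week before readout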
# setup.conditions: second compound 0.1 µM; first compound 0.01 µM
Pick from YES = active, NO = inactive when you respond.

# example entries with known answers
- compound: "CC[C@@]1(O)C(=O)OCc2c1cc1n(c2=O)Cc2cc3c(CN(C)C)c(O)ccc3nc2-1 + NC1CCC(NC2CC2c2ccccc2)CC1"
  measured.on: "233499-124-R-J3-PDC complex spheroid viability, % test/control"
  label.class: "NO"
- compound: "CC(C)CC(NC(=O)C(Cc1ccccc1)NC(=O)c1cnccn1)B(O)O (configuration not stated) + NC1CC1c1ccc(-c2cccc(O)c2)cc1"
  measured.on: "233499-124-R-J3-PDC complex spheroid viability, % test/control"
  label.class: "YES"
- compound: "Nc1ncn(C2CC(O)C(CO)O2)c(=O)n1 (configuration not stated) + NC1CCC(NC2CC2c2ccccc2)CC1"
  measured.on: "233499-124-R-J3-PDC complex spheroid viability, % test/control"
  label.class: "NO"
- compound: "O=C(C=Cn1cnc(-c2cc(C(F)(F)F)cc(C(F)(F)F)c2)n1)NNc1cnccn1 + NC1CC1c1ccc(-c2cccc(O)c2)cc1"
  measured.on: "233499-124-R-J3-PDC complex spheroid viability, % test/control"
  label.class: "NO"
- compound: "Cn1ncnc1C1c2n[nH]c(=O)c3cc(F)cc(c23)NC1c1ccc(F)cc1 (configuration not stated) + NC1CC1c1ccc(-c2cccc(O)c2)cc1"
  measured.on: "233499-124-R-J3-PDC complex spheroid viability, % test/control"
  label.class: "NO"
- compound: "CC1COCCN1c1cc(-c2ccnn2C)c2ccnc(-c3ccn[nH]3)c2n1 (configuration not stated) + NC1CCC(NC2CC2c2ccccc2)CC1"
  measured.on: "233499-124-R-J3-PDC complex spheroid viability, % test/control"
  label.class: "NO"

Here is the next item to consider.
(Q) Just curious, what result did CC(C)CC(NC(=O)C(Cc1ccccc1)NC(=O)c1cnccn1)B(O)O (configuration not stated) + NC1CCC(NC2CC2c2ccccc2)CC1 get here?
(A) YES
